B1: Ribonuclease, P00648 (parent)
chain: MMKMEGIALKKRLSWISVCLLVLVSAAGMLFSTAAKTETSSHKAHTEAQVINTFDGVADYLQTYHKLPDNYITKSEAQALGWVASKGNLADVAPGKSIGGDIFSNREGKLPGKSGRTWREADINYTSGFRNSDRILYSSDWLIYKTTDHYQTFTKIR

# Variants of: B1
# Condition description: Bacillus amyloliquefaciens; pH 6.3; 25 °C; Urea; Fluorescence; MES 1.00 M; NaCl 613 mM; reversible: yes; structure 1BNI; whole UniProt chain shown
Listing of entries alongside the reported denaturant m value.
Property measured: denaturant m value (kcal/mol/M)

Y60F | 2.17
Y64F | 2.16
Y60A Y64A | 2.22
Y60F Y64F | 2.08
Y60A | 2.26
